target: mSTING-R232 (Mus musculus, UniProt Q3TBT3); assay: STING differential scanning fluorimetry (DSF) assay, mouse STING; settings: net shift in melting temperature
measurementKind: MOUSE DSF_6xHIS-SUMO Tm Shift (° C.)

[
  {
    "chemicalString": "Cc1ccc(-c2ccc3c(=O)c4ccc(Cl)c(Cl)c4n(CC(=O)O)c3c2)cc1Cl",
    "MOUSE DSF_6xHIS-SUMO Tm Shift (° C.)": "D (“D” > 15° C.)"
  },
  {
    "chemicalString": "Cc1ccc2c(=O)c3ccc(Cl)c(N(C)C)c3n(CC(=O)O)c2c1",
    "MOUSE DSF_6xHIS-SUMO Tm Shift (° C.)": "D (“D” > 15° C.)"
  },
  {
    "chemicalString": "O=C(O)Cn1c2cc(-c3cccc(Cl)n3)ccc2c(=O)c2ccc(Cl)c(Cl)c21",
    "MOUSE DSF_6xHIS-SUMO Tm Shift (° C.)": "C (“C” = 5-15° C.)"
  },
  {
    "chemicalString": "CCOc1c(Cl)ccc2c(=O)c3ccc(CC)cc3n(CC(=O)O)c12",
    "MOUSE DSF_6xHIS-SUMO Tm Shift (° C.)": "D (“D” > 15° C.)"
  },
  {
    "chemicalString": "CCc1ccc2c(=O)c3ccc(Cl)c(OC)c3n(CC(=O)O)c2c1",
    "MOUSE DSF_6xHIS-SUMO Tm Shift (° C.)": "C (“C” = 5-15° C.)"
  }
]

Q: Which MOUSE DSF_6xHIS-SUMO Tm Shift (° C.) is reported for this molecule? O=C(O)Cn1c2ccccc2c(=O)c2ccc(F)c(Br)c21
A: C (“C” = 5-15° C.)

Q: Which MOUSE DSF_6xHIS-SUMO Tm Shift (° C.) is reported for this molecule? CSc1c(Cl)ccc2c(=O)c3ccc(Br)cc3n(CC(=O)O)c12
A: C (“C” = 5-15° C.)

Q: Which MOUSE DSF_6xHIS-SUMO Tm Shift (° C.) is reported for this molecule? COc1c(Cl)cc(O)c2c(=O)c3ccccc3n(CC(=O)O)c12
A: C (“C” = 5-15° C.)

Q: Which MOUSE DSF_6xHIS-SUMO Tm Shift (° C.) is reported for this molecule? COc1c(Cl)ccc2c(=O)c3ccc(C(C)(C)C)cc3n(CC(=O)NS(C)(=O)=O)c12
A: D (“D” > 15° C.)
